Reported EC50 values are given for each entry in this list.
Test details: RSV-A Assay: The description is Japanese.
Measurement type: EC50

{"columns": ["Molecule", "Measured result"],
 "data": [
  ["O=C1Nc2ccccc2C(c2ccccc2)=NC1Nc1ccnc(-c2ccccc2)n1 (centres undefined)", "> 800 nM"],
  ["CC1(c2nnc(NC3N=C(c4ccccc4)c4ccccc4NC3=O)o2)CCNC1 (centres undefined)", "> 800 nM"],
  ["O=C1Nc2ccccc2C(c2ccccc2)=NC1Nc1nnc(-c2ccccc2)[nH]1 (centres undefined)", "> 800 nM"],
  ["COC(=O)c1occc1N1CCOCC1", "< 400 nM"],
  ["COC1CCN(c2ncccc2-c2nnc(NC3N=C(c4ccccc4)c4ccccc4NC3=O)o2)CC1 (centres undefined)", "> 800 nM"],
  ["O=C1Nc2ccccc2C(c2ccccc2)=NC1Nc1nnc(-c2ncc(N3CCOCC3)cc2F)o1 (centres undefined)", "< 400 nM"],
  ["CN(CC(C)(C)O)c1cc(C(F)(F)F)cnc1-c1nnc(N[C@H]2N=C(c3ccccc3)c3ccccc3NC2=O)o1", "> 800 nM"],
  ["O=C1Nc2ccccc2C(c2ccccc2)=N[C@@H]1Nc1nnc(-c2ncc(C(F)(F)F)cc2N[C@H]2CC[C@H]2O)o1", "> 800 nM"],
  ["N#Cc1c[nH]c2cc(-c3nnc(N[C@H]4N=C(c5ccccc5)c5ccccc5NC4=O)o3)ccc12", "> 800 nM"],
  ["C#Cc1cnc(-c2nnc(N[C@H]3N=C(c4ccccc4)c4ccccc4NC3=O)o2)c(N2CCOCC2)c1", "< 400 nM"],
  ["O=C1Nc2ccccc2C(c2ccccc2)=N[C@@H]1Nc1nnc(-c2nc(-c3ccc(F)cc3)sc2N2CCOCC2)o1", "< 400 nM"],
  ["CCOC(=O)c1cn(-c2cccnc2)nc1N1CCOCC1", "< 400 nM"],
  ["COCCCc1cc(C(F)(F)F)cnc1-c1nnc(N[C@H]2N=C(c3ccccc3)c3ccccc3NC2=O)o1", "> 800 nM"],
  ["Cc1cc(-c2nnc(N[C@H]3N=C(c4ccccc4)c4ccccc4NC3=O)o2)n(C2CCOCC2)n1", "> 800 nM"],
  ["O=C1Nc2ccccc2C(c2ccccc2)=N[C@@H]1Nc1nnc(-c2nc3ccccc3cc2N2CCOCC2)o1", "< 400 nM"],
  ["O=C1Nc2ccccc2C(c2ccccc2)=NC1Nc1nnc(-c2cccc3ccccc23)o1 (centres undefined)", "> 800 nM"],
  ["O=C1Nc2ccccc2C(c2ccccc2)=NC1Nc1ncc(-c2ccccc2)cn1 (centres undefined)", "> 800 nM"],
  ["O=C1Nc2ccccc2C(c2ccccc2)=NC1Nc1ncc(-c2ccc(Br)cc2)o1 (centres undefined)", "> 800 nM"]
]}

###

Test details: RSV-A Assay: The description is Japanese.
Measurement type: EC50

{"columns": ["Compound", "Measurement type", "Measured result"],
 "data": [
  ["O=C1Nc2ccccc2C(c2ccccc2)=NC1Nc1nnc(-c2ccc(-n3ccnc3)cc2)o1 (stereo not drawn)", "EC50", "< 400 nM"],
  ["O=C1Nc2ccccc2C(c2ccccc2)=NC1Nc1ccc(-c2ccncc2)nn1 (stereo not drawn)", "EC50", "> 800 nM"],
  ["O=C1Nc2ccccc2C(c2ccccc2)=NC1Nc1nnc(-c2ccc(C(F)(F)F)cc2N2CCOCC2)o1 (stereo not drawn)", "EC50", "< 400 nM"],
  ["NNC(=O)c1ccc(N2CCOCC2)cc1C(F)(F)F", "EC50", "> 800 nM"],
  ["N#Cc1ccc(-c2nnc(NC3N=C(c4ccccc4)c4ccccc4NC3=O)o2)c(N2CCOCC2)c1 (stereo not drawn)", "EC50", "< 400 nM"],
  ["O=C1Nc2ccccc2C(c2ccccc2)=NC1Nc1nnc(-c2cccnc2N2C[C@H]3C[C@@H]2CO3)o1 (stereo partly drawn)", "EC50", "> 800 nM"],
  ["O=C1Nc2ccccc2C(c2ccccc2)=NC1Nc1nnc(-c2cccnc2N2C[C@@H]3C[C@H]2CO3)o1 (stereo partly drawn)", "EC50", "> 800 nM"],
  ["Cc1ccc(-c2nnc(N[C@H]3N=C(c4ccccc4)c4ccccc4NC3=O)o2)c(N2CCOC[C@H]2C)n1", "EC50", "< 400 nM"],
  ["N#Cc1cnc(-c2nnc(NC3N=C(c4ccccc4)c4ccccc4NC3=O)o2)c(N2CCOCC2)c1 (stereo not drawn)", "EC50", "< 400 nM"],
  ["CS(=O)(=O)c1ccc(-c2nnc(NC3N=C(c4ccccc4)c4ccccc4NC3=O)o2)cc1 (stereo not drawn)", "EC50", "> 800 nM"],
  ["O=C1Nc2ccccc2C(c2ccccc2)=NC1Nc1nnc(-c2ccc(F)cc2)s1 (stereo not drawn)", "EC50", "> 800 nM"],
  ["COc1ccc(-c2nnc(NC3N=C(c4ccccc4)c4ccccc4NC3=O)o2)cc1 (stereo not drawn)", "EC50", "> 800 nM"],
  ["N#Cc1cnc(-c2nnc(N[C@H]3N=C(c4ccccc4)c4ccccc4NC3=O)o2)c(N2CC3CCC(C2)O3)c1", "EC50", "< 400 nM"]
]}

###

Below, each of the compounds is paired with its reported EC50 value.
Test details: RSV-A Assay: The description is Japanese.

{"columns": ["Compound", "EC50"],
 "data": [
  ["O=C1Nc2ccccc2C(c2ccccc2)=NC1Nc1nc2ccccc2s1 (centres undefined)", "> 800 nM"],
  ["O=C1Nc2ccccc2C(c2ccccc2)=N[C@@H]1Nc1nnc(-c2cn(-c3ccccn3)nc2N2CCOCC2)o1", "< 400 nM"],
  ["O=C1Nc2ccccc2C(c2ccccc2)=NC1Nc1nnc(C2CC2)[nH]1 (centres undefined)", "> 800 nM"],
  ["O=C1Nc2ccccc2C(c2ccccc2)=NC1Nc1nnc(-c2cnco2)o1 (centres undefined)", "> 800 nM"],
  ["O=C1Nc2c(F)cccc2C(c2ccccc2)=N[C@H]1Nc1nnc(-c2ncc(C(F)(F)F)cc2N2CCOCC2)o1", "< 400 nM"],
  ["O=C1Nc2ccccc2C(c2ccccc2)=N[C@@H]1Nc1nnc(-c2oc3cccc(F)c3c2N2CCOCC2)o1", "< 400 nM"],
  ["O=C1Nc2ccccc2C(c2ccccc2)=NC1Nc1nnc(C2CCNC2)o1 (centres undefined)", "> 800 nM"],
  ["CS(=O)(=O)c1ccc(-c2nnc(NC3N=C(c4ccccc4)c4ccccc4NC3=O)o2)nc1 (centres undefined)", "> 800 nM"],
  ["O=C1Nc2ccccc2C(c2ccccc2)=N[C@H]1Nc1nnc(-c2nc(C(F)(F)F)sc2N2CCO[C@@H]3C[C@@H]32)o1", "> 800 nM"]
]}

###

Test details: RSV-A Assay: The description is Japanese.
pEC50: −log10 of the molar value.
Measurement type: pEC50

{"columns": ["Molecule", "Measured result"],
 "data": [
  ["CS(=O)(=O)c1ccc(-c2nnc(NC3N=C(c4ccccc4)c4ccccc4NC3=O)o2)c(N2CCOCC2)c1 (centres undefined)", "< 6.10"],
  ["O=C1Nc2ccccc2C(c2ccccc2)=N[C@@H]1Nc1nnc(-c2ccc(F)nc2N2CCOCC2)o1", "> 6.40"],
  ["O=C1Nc2ccccc2C(c2ccccc2)=N[C@@H]1Nc1nnc(-c2nnsc2N2CCOCC2)o1", "> 6.40"],
  ["O=C1Nc2ccccc2C(c2ccccc2)=NC1Nc1nnc(-c2cccnc2N2C3CCC2COC3)o1 (centres undefined)", "< 6.10"],
  ["COCc1cccc(-c2nnc(NC3N=C(c4ccccc4)c4ccccc4NC3=O)o2)n1 (centres undefined)", "< 6.10"],
  ["O=C1Nc2ccccc2C(c2ccccc2)=N[C@@H]1Nc1nnc(-c2nc(C(F)(F)F)sc2N2CCO[C@@H]3C[C@@H]32)o1", "< 6.10"],
  ["COc1ccccc1-c1nnc(NC2N=C(c3ccccc3)c3ccccc3NC2=O)o1 (centres undefined)", "< 6.10"],
  ["N#Cc1cnc(-c2nnc(N[C@H]3N=C(c4ccccc4)c4cccc(F)c4NC3=O)o2)c(N2CCOCC2)c1", "> 6.40"],
  ["COCc1ccc(-c2nnc(NC3N=C(c4ccccc4)c4ccccc4NC3=O)o2)o1 (centres undefined)", "< 6.10"]
]}

###

Test details: RSV-A Assay: The description is Japanese.
pEC50: −log10 of the molar value.
Let's look at some compounds and their measured pEC50.
Measurement type: pEC50

{"columns": ["Compound", "Measured result"],
 "data": [
  ["CC(C)(O)c1nc(-c2nnc(N[C@H]3N=C(c4ccccc4)c4ccccc4NC3=O)o2)c(N2CCOCC2)s1", "> 6.40"],
  ["O=C1Nc2ccccc2C(c2ccccc2)=NC1Nc1nnc(-c2ccccc2OC2CCOCC2)o1 (stereo not given)", "< 6.10"],
  ["CCOC(=O)c1ccnc2ccc(OC)cc12", "< 6.10"],
  ["N#Cc1ccc(-c2nnc(N[C@H]3N=C(c4ccccc4)c4ccccc4NC3=O)o2)c(N2CC3CCC(C2)O3)c1", "> 6.40"],
  ["CCOC(=O)c1nc(-c2ccc(F)cn2)sc1N1CCOCC1", "> 6.40"],
  ["CCOC(=O)c1ncc(N2CCCC2)cc1N1CCOCC1", "> 6.40"],
  ["N#Cc1ccc(-c2nnc(N[C@H]3N=C(c4ccccc4)c4ccccc4NC3=O)o2)c(-c2ccsc2)c1", "< 6.10"],
  ["CS(=O)(=O)Cc1nnc(NC2N=C(c3ccccc3)c3ccccc3NC2=O)o1 (stereo not given)", "< 6.10"],
  ["CN1CCN(c2ccc(-c3nnc(NC4N=C(c5ccccc5)c5ccccc5NC4=O)o3)cc2)CC1 (stereo not given)", "< 6.10"],
  ["O=C1Nc2ccccc2C(c2ccccc2)=NC1Nc1nnc(-c2ccccc2)o1 (stereo not given)", "< 6.10"]
]}

Recorded values, source ChEMBL document CHEMBL5729210.
